tested on: PC-3; assay: NCI tumour cell line growth inhibition, 48 h
Active and inactive are the calls of the source. Cut-off read from the data, not from the text of the source: active = GI50 up to about 1.1 µM and inactive = higher.
Reported GI50 values follow for various compounds

{"columns": ["compound", "GI50"],
 "data": [
  ["COC(=O)CC(CNC(=O)OCc1ccccc1)OCc1ccc(OC)cc1 (stereo not drawn)", "99.5 µM (inactive)"],
  ["SCCCSCCSCCCSCCS", "65.8 µM (inactive)"],
  ["O=C1C[C@H](c2ccccc2)C2(C(=O)c3ccccc3C2=O)[C@@H](c2ccccc2)C1", "10.8 µM (inactive)"],
  ["O=C(c1cccnc1)N1N=C(c2ccc(Cl)cc2)CC1(O)c1cc(F)c(Cl)cc1Cl (stereo not drawn)", "12.9 µM (inactive)"],
  ["Nn1c(Nc2ccc(S(N)(=O)=O)cc2)nnc(/C=C/c2c(O)ccc3ccccc23)c1=O", "47.2 µM (inactive)"],
  ["O=C1Nc2ccc(S(=O)(=O)N(CCO)CCO)cc2/C1=C1/Nc2ccccc2C1=O", "30.3 µM (inactive)"],
  ["CC1OC(OC2C(OC(=O)[C@@H]3CC(C)(C)C[C@H]4C5=CC[C@@H]6[C@@]7(C)C[C@H](O)[C@H](OC8OC(CO)C(O)C(O)C8O)[C@@](C)(CO)[C@@H]7[C@H](O)C[C@@]6(C)[C@]5(C)CC[C@@]34C)OCC(O)C2O)C(O)C(O)C1O (stereo partly drawn)", "> 7.5 µM (inactive)"],
  ["COc1cccc(C(=O)Oc2ccc(OS(=O)(=O)c3ccc(C)cc3)cc2)c1C#N", "43.3 µM (inactive)"]
]}
